All values here come from patent US4005206A.

test system: serotonine-provoked contraction of guinea pig ileon; test: Antiserotonine activity on isolated ileon; type: cell-based; settings: Cavia porcellus; isolated guinea pig ileon, Tyrode liquid 37° C, contact time one minute; read-out: IC50 (approximate 50% inhibiting concentration, contraction by serotonine)
Assay Metric: IC50

Completed entries (count: 2):
# Compound, IC50
rows = [
    ("Clc1ccc2[nH]c3c(c2c1)CCNC3Cc1c[nH]c2ccccc12 (stereo not drawn)", "1 to 2 µg/mL"),
    ("Oc1ccc2[nH]cc(CC3NCCc4c3[nH]c3ccccc43)c2c1 (stereo not drawn)", "0.1 to 0.2 µg/mL"),
]

Now for a further compound.
Fill in: IC50 of COc1ccc2[nH]cc(CC3NCCc4c3[nH]c3ccc(O)cc43)c2c1 (stereo not drawn) is ___
0.5 to 1 µg/mL
